Attribution: ChEMBL document CHEMBL4613223

pIC50 values by entry
# assay_notes: Inhibition of Neisseria gonorrhoeae GCYH1B
In simple prose, pIC50 is minus the logarithm base ten of a concentration in moles per litre.

Here is how some molecules turned out for pIC50.
INSERT INTO results (compound_string, value_kind, data_value) VALUES
  ('Nc1nc(OCCO)c2[nH]c(=O)n([C@@H]3O[C@H](CO)[C@@H](O)[C@H]3O)c2n1', 'pIC50', 3.38),
  ('COc1nc2c(=O)[nH]c(N)nc2n1[C@@H]1O[C@H](CO)[C@@H](O)[C@H]1O', 'pIC50', 3.43),
  ('Nc1nc(OC[C@H](O)CO)c2[nH]c(=O)n([C@@H]3O[C@H](CO)[C@@H](O)[C@H]3O)c2n1', 'pIC50', 3.87);

Shifting focus to the molecule that follows.
Input: Which measured pIC50 value corresponds to Nc1nc(OC[C@@H](O)CO)c2[nH]c(=O)n([C@@H]3O[C@H](CO)[C@@H](O)[C@H]3O)c2n1 ?
Output: 3.79
